System: SW-620 colon
assayExplanation: NCI tumour cell line growth inhibition, 48 h
Each item that follows carries a reported TGI.

The examples below pair each entry with its known result.
CCOc1ccc(NC(=O)c2cc3ccccc3cc2O)cc1 | > 100 µM
CC(=O)OC1CC2(O)C(CCC3(C)C(c4ccc(=O)oc4)CCC32O)C2(C)CCC(OC3OC(CO)C(O)C(O)C3O)C=C12 (stereo not drawn) | 0.144 µM

# input for lookup
Request: Given COc1ccccc1Nc1nc2ccccc2c2occc12 , state its recorded TGI.
Result: > 50 µM

###

Tested on: SF-268 CNS
assayExplanation: NCI tumour cell line growth inhibition, 48 h
testReadout: TGI

CC(C)(C)OC(=O)NCC(=O)N(CCc1ccc(Cl)c(Cl)c1)CCN1CCCC1 | 31.6 µM
CN(C)CCC(=O)N1CCc2c([nH]c3ccccc23)C1c1cccnc1 (stereo unspecified) | > 100 µM

Request: Requested field: TGI. Item: O=S(=O)([O-])[O-].[Fe+2].[OH2+]c1c(Cl)cc(Cl)cc1/C=N/Nc1ccccn1
Result: 1.94 µM

Request: I am curious: what TGI value has been reported for COc1ccc2oc(=O)c(-c3csc(-c4ccccc4)n3)cc2c1 ?
Result: 71.2 µM

Request: Fill in: TGI of Cc1cccc(/C=C2/C(=O)Nc3ccccc32)n1 is ___
Result: 42.5 µM

Request: For Oc1ccccc1-c1n[nH]c(-c2ccccc2O)n1 , what is its reported TGI?
Result: > 100 µM

Request: So what does the record say about TGI for O=C(NN1C(=O)C(Cl)C1c1cccc(Cl)c1)c1ccccc1O (stereo unspecified) ?
Result: > 100 µM

Request: Fill in the blank: the reported TGI of COc1ccc2cc(/C=N\NC(=O)Nc3ccc([N+](=O)[O-])cc3)ccc2c1 is ____.
Result: > 31.6 µM

Request: Would you kindly share the measured TGI for Cc1ccccc1NC(=O)C(=O)CC(=O)C1CCOC1=O (stereo unspecified) ?
Result: > 100 µM

Request: // returns reported TGI for input CSC(=NC#N)S/C=C/C(=O)c1cccc2ccccc12
Result: > 100 µM

Request: So what does the record say about TGI for CCOC(=O)C(O)Cc1cnc2ccccc2n1 (stereo unspecified) ?
Result: > 100 µM

###

Measured TGI, listed per entry.
Tested on: OVCAR-4 ovarian
assayExplanation: NCI tumour cell line growth inhibition, 48 h

Request: # input molecule: N#CCN1CCN(CC#N)CCN(CC#N)CCN(CC#N)CC1 ; wanted: its TGI
Result: > 100 µM

###

Reported GI50 values are given for each entry in this list.
System: MALME-3M melanoma
assayExplanation: NCI tumour cell line growth inhibition, 48 h

Below, each entry is followed by its recorded GI50 result.
OCc1ncc(-c2ccccc2)s1 | > 100 µM
CC(C)c1ccc(/C=N/N=C(N)N)cc1 | 5.56 µM
NC(=S)N/N=C/c1ccc(OC(=O)COc2ccccc2)cn1 | 11.2 µM
C[n+]1cc2cc3c(cc2c2ccccc21)OCO3 | 1.86 µM
CCOc1ccc(NC(=O)c2cc3ccccc3cc2O)cc1 | 39.7 µM
O=C(Nc1cc(C(F)(F)F)cc(C(F)(F)F)c1)Nc1ccc(OCc2nnc(-c3ccc(Cl)cc3)o2)c(F)c1 | 2.3 µM

Request: Given the entry CC(=O)[O][Hg][CH2]C1(C)COC(C)([CH2][Hg][O]C(C)=O)CO1 (stereo not drawn) , report its measured GI50.
Result: 4.66 µM

Request: GI50 for CC(=O)Oc1ccccc1C(=O)NCCC[Se]C#N ?
Result: 1.72 µM

Request: What measured GI50 goes with COc1ccc2c(c1)C(=O)c1c-2n(CCCN=[N+]=[N-])c(=O)c2cc(N)ccc12 ?
Result: > 100 µM

Request: What value of GI50 has been recorded for this entry: CCCC(CCC)Oc1ccc(CCCC2=C(O)c3ccccc3C(=O)C2=O)cc1
Result: 7.53 µM

Request: If you can, please state the reported GI50 value of Clc1ccc(-c2nc(C(Cl)Cl)nc3cc(-c4ccccc4)nn23)cc1 .
Result: 2 µM

Request: I'd like to know its GI50. The compound in question is O=C(Nc1nc(-c2ccccc2)cs1)c1cc(O)c(O)c(O)c1
Result: 8.86 µM

Request: Form field: reported GI50 of CCOC(=O)Nc1ccc(C(=O)/C=C/c2ccccc2)cc1
Result: 77.4 µM

Request: Value lookup for GI50; key = C[CH2][Ge]([CH2]C)([CH2]C)[O]C(=O)C([O][Ge]([CH2]C)([CH2]C)[CH2]C)c1ccccc1 (stereo not drawn)
Result: 16.8 µM

Request: I have this compound here, CCOc1ccc2c(c1)C(=O)c1c-2n(CCCN)c(=O)c2cc([N+](=O)[O-])ccc12 , and I need its recorded GI50.
Result: 0.574 µM

Request: Query (compound): CCCCCCCCc1ccc(CCC(N)(CO)CO)cc1 ; field requested: GI50
Result: 2.32 µM

Request: Would you kindly share the measured GI50 for CC1=C/C(O)CC(=O)Cc2nc(co2)C(=O)N2CCC=C2C(=O)OC(C(C)C)C(C)/C=C\C(=O)NC/C=C\1 (stereo not drawn) ?
Result: 23.1 µM

Request: Record request: GI50 value, item O=C(O)c1cc2cc(O)ccc2[nH]1
Result: > 100 µM
